study.target: Phosphatidylinositol 4,5-bisphosphate 3-kinase catalytic subunit alpha isoform (Mus musculus)
Sequence (P42337 whole entry, the tested form may be a part, canonical isoform): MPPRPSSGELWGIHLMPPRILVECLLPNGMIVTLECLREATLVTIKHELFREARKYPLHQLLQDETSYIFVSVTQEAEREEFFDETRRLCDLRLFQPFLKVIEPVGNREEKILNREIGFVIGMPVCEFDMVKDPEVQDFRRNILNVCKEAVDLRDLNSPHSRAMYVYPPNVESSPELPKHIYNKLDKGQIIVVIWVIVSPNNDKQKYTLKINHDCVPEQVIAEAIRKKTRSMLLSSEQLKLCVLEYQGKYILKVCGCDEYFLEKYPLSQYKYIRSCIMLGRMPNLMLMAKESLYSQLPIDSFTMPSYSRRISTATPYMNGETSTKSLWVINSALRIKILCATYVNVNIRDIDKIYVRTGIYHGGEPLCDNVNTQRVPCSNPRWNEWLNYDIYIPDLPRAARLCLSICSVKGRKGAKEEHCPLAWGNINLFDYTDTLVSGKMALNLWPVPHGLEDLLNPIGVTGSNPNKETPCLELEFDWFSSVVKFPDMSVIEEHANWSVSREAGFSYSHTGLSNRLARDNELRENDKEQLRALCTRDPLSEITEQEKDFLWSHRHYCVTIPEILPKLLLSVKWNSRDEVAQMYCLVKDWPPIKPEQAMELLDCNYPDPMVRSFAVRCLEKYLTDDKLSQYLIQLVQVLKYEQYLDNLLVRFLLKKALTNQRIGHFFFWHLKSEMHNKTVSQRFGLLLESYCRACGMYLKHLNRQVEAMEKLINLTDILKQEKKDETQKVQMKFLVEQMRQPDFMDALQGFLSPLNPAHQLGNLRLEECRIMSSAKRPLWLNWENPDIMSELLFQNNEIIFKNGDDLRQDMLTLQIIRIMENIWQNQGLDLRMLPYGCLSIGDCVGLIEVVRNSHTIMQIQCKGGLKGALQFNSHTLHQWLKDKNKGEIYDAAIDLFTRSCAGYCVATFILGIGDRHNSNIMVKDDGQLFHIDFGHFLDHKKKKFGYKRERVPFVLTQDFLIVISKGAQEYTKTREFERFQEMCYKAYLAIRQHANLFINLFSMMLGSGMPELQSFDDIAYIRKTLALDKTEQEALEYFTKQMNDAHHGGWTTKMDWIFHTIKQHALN
assay.explanation: Inhibition of mouse PI3K alpha expressed in insect cells coexpressing p85 subunit assessed as PI(3,4,5)P3 formation using PI(4,5)P2 as substrate by measuring displacement of TAMRA-labeled PI(3,4,5)P3 from Grip1 PH domain after 35 mins by ligand displacement fluorescence polarization assay
Recorded pKi, one value per entry.
Lab note: report pKi as minus log10 of the concentration in molar units, number only.

- molecule: "COc1ccc(-c2cc3c(C)nc(N)nc3n(C3CCOC3)c2=O)cn1 (stereo not drawn)"
  pKi: 8.18
- molecule: "Cc1nc(N)nc2c1cc(-c1cccc(CO)c1)c(=O)n2C1CCCC1"
  pKi: 8.92
- molecule: "CNc1nc(C)c2cc(-c3ccc(OC)nc3)c(=O)n(C3CCCC3)c2n1"
  pKi: 8.96

Query: Returns the measured pKi for the input molecule. Input: CNc1nc(C)c2cc(-c3cccc(CO)c3)c(=O)n(C3CCCC3)c2n1
Reply: 8.85

Query: For COc1ccc(-c2cc3c(C)nc(N)nc3n([C@H]3CC[C@H](O)CC3)c2=O)cn1 then?
Reply: 9.05

Query: Param item: COc1ccc(-c2cc3c(C)nc(N)nc3n([C@H]3CC[C@@H](O)CC3)c2=O)cn1
Reply: 8.52

Query: What do we get for COc1ccc(-c2cc3c(C)nc(N)nc3n(C3CCOCC3)c2=O)cn1 ?
Reply: 8.44

Query: Let us now turn to COc1ccc(-c2cc3c(C)nc(N)nc3n(C3CCCC3)c2=O)cn1
Reply: 8.85

---

assay.explanation: Volume of distribution at steady state in rat at 2 mg/kg, iv and 5 mg/kg, po by LC-MS/MS analysis
Type: ADME, organism-based
test.parameters: in vivo, read-out: Vdss
parameter.measured: Vd (L/kg)
Write the number in L/kg without appending the unit.

Query: Item under review: COc1ccc(-c2cc3c(C)nc(N)nc3n([C@H]3CC[C@H](OCCO)CC3)c2=O)cn1 . Reported Vd?
Reply: 1.39

---

List of solubility kinetic values.
assay.explanation: Kinetic solubility of the compound
Format: physicochemical
test.parameters: read-out: Kinetic_solubility
// return numeric value only (unit: µM, not printed)

Some solved entries appear below for comparison.
- molecule: "COc1ccc(-c2cc3c(C)nc(N)nc3n([C@H]3CC[C@H](O)CC3)c2=O)cn1"
  solubility kinetic [µM]: 16
- molecule: "COc1ccc(-c2cc3c(C)nc(N)nc3n(C3CCCC3)c2=O)cn1"
  solubility kinetic [µM]: 3.9
- molecule: "COc1ccc(-c2cc3c(C)nc(N)nc3n(C3CCOC3)c2=O)cn1 (stereo not given)"
  solubility kinetic [µM]: 144

Query: Need solubility kinetic of COc1ccc(-c2cc3c(C)nc(N)nc3n([C@H]3CC[C@H](OCCO)CC3)c2=O)cn1 , thanks.
Reply: 14

Query: And COc1ccc(-c2cc3c(C)nc(N)nc3n([C@H]3CC[C@@H](O)CC3)c2=O)cn1 ?
Reply: 60

Reference for the values: ChEMBL document CHEMBL3217449
